System: SNB-75 CNS
experiment.summary: NCI-60 one-dose screen, 48 h (100 = growth as untreated, 0 = no growth, -100 = all killed)
conditions.used: 10 µM unless noted
Compounds without any hit were thinned out: in the full panel of roughly 83,000, 20% have a hit.
measurement.name: growth (%)

compound: C[C@H]1[C@H]2[C@H]3CC[C@@H]4[C@@]5(C)CC[C@H](O)C(C)(C)[C@@H]5CC[C@@]4(C)[C@]3(C)CC[C@]23CO[C@]1(C)[C@@H](C(=O)/C=C\c1ccco1)C3
measurement.name: growth
result.value: 78.4

compound: C=C1C(=O)O[C@H]2[C@H]1CC/C(CNC(=O)C(C)c1ccc(CC(C)C)cc1)=C\CC[C@@]1(C)O[C@@H]21 (stereo partly drawn)
measurement.name: growth
result.value: 64.5

compound: c1ccc2cc(Cn3c(-c4cccc5ccccc45)[n+](Cc4ccc5ccccc5c4)c4c5ccccc5c5ccccc5c43)ccc2c1
measurement.name: growth
result.value: -66.3

compound: Cc1ccc(/C=N/NC(=O)CSc2nc3ccccc3c(=O)n2Cc2ccc(S(N)(=O)=O)cc2)cc1
measurement.name: growth
result.value: 71

compound: CCN1C(=O)/C(=C/C(=O)OC)S/C1=N\NC(=O)c1cc2ccc1/C=C\c1ccc(cc1)/C=C\2
measurement.name: growth
result.value: 78.8

compound: Cc1cc2nc3c4ccc(Br)cc4n(CCN(C)C)c3nc2cc1C
measurement.name: growth
result.value: 16.7

compound: CCCCCCOc1ccc(/C=N/Nc2cc(C)nc3ccc(Cl)cc23)cc1
measurement.name: growth
result.value: -44.6

compound: COc1ccc(C(=O)CSc2nc(-c3cc(OC)ccc3OC)cc(-c3ccc(Cl)cc3)c2C#N)cc1
measurement.name: growth
result.value: 30.9

###

Test system: SN12C renal
experiment.summary: NCI-60 one-dose screen, 48 h (100 = growth as untreated, 0 = no growth, -100 = all killed)
conditions.used: 10 µM unless noted
About 83,000 compounds went through this panel and 20% of them were active in at least one assay; those are over-represented in the sample as a whole.
# cutoff 80% applies to growth; >= gives TRUE, < gives FALSE

smiles.structure: Cc1nnc2c(Cc3ccccc3)nc3ccccc3n12
class: TRUE
//
smiles.structure: Nc1nc(Nc2ccccc2SSc2ccccc2Nc2nc(N)nc(-c3ccc(C(F)(F)F)cc3)n2)nc(-c2ccc(C(F)(F)F)cc2)n1
class: FALSE
//
smiles.structure: O=C(/C(=C/c1ccc([N+](=O)[O-])cc1)SCc1ccc(F)cc1)c1ccc(F)cc1
class: TRUE

###

Tested on: NCI-H460 lung
experiment.summary: NCI-60 one-dose screen, 48 h (100 = growth as untreated, 0 = no growth, -100 = all killed)
conditions.used: 10 µM unless noted
The panel holds about 83,000 compounds, 20% with a hit somewhere; the sample as a whole holds those more often.

compound: CCN(CC)c1ccc(/C=N/NC(=O)CSc2nc3ccccc3c(=O)n2Cc2ccc(S(N)(=O)=O)cc2)c(O)c1
scale.unit: %
growth: 6.78
--
compound: Oc1cccc(CCc2ccc(Oc3cc(CCc4cccc(O)c4)cc(O)c3O)cc2)c1
scale.unit: %
growth: 66.4
--
compound: COC(=O)/C=C1\S/C(=N\NC(=O)c2cc3ccc2/C=C\c2ccc(cc2)/C=C\3)N(c2ccccc2)C1=O
scale.unit: %
growth: 60.7
--
compound: CC(C)N1C(=O)S/C(=C2/SC(=O)N(C(C)C)C2=O)C1=O
scale.unit: %
growth: 102
--
compound: CN1CCN(CCNc2nccc(-c3c(-c4cccc(O)c4)nc4sccn34)n2)S1(=O)=O
scale.unit: %
growth: 57.3
--
compound: Cc1cccc(-c2cn3ccnc3c(-c3ccc4ncn(Cc5ccccc5)c4c3)n2)c1
scale.unit: %
growth: 89.9
--
compound: Cc1cc(Cl)nc(N(CCNc2ccnc3cc(Cl)ccc23)Cc2ccccn2)n1
scale.unit: %
growth: 50.9
--
compound: Cn1c(-c2c(N)n(CCCN3CCOCC3)c3nc(C#N)c(C#N)nc23)nc2ccccc21
scale.unit: %
growth: 106
--
compound: CN(C)CCn1c2ccc(Br)cc2c2nc3ccccc3nc21
scale.unit: %
growth: 12.6
--
compound: CCc1c(Cl)nc(N)nc1Nc1ccc(C)c(C)c1
scale.unit: %
growth: 80.7
--
compound: c1ccc2cc(Cn3c(-c4cccc5ccccc45)[n+](Cc4ccc5ccccc5c4)c4c5ccccc5c5ccccc5c43)ccc2c1
scale.unit: %
growth: -71.7
--
compound: CC(Sc1nc2sc3c(c2c(=O)n1-c1ccc(Cl)cc1)CCCC3)C(=O)Nc1nc(-c2ccc(Br)cc2)cs1 (configuration not stated)
scale.unit: %
growth: 104
--
compound: NC(=NCCCOc1ccc(F)cc1)Nc1ccc(I)cc1
scale.unit: %
growth: 81.8
--
compound: CC1=C(C(=O)/C=C/c2ccc(N(C)C)cc2)C(c2ccccc2)NC(=S)N1 (configuration not stated)
scale.unit: %
growth: 108
--
compound: COC(=O)N[C@H]1CCc2c(Cl)c(OC)c(OC)c(OC)c2-c2ccc(SC)c(=O)cc21
scale.unit: %
growth: -11.4
--
compound: Cc1cc2c(C(=O)NCC#N)cccc2n1-c1nc2c(c(NCc3ccccc3)n1)CCCC2
scale.unit: %
growth: -35.7
--
compound: O=S(=O)(NCCNc1nccc(-c2c(-c3cccc(O)c3)nc3occn23)n1)c1ccc(C(F)(F)F)cc1
scale.unit: %
growth: 94.9
--
compound: O=C(NCCc1ccccc1)Nc1ccc2cc3ccc(NC(=O)NCCc4ccccc4)cc3nc2c1
scale.unit: %
growth: 16.8
--
compound: COc1cc2cc(Oc3cccc(NC(=O)Nc4cc(C(F)(F)F)cc(C(F)(F)F)c4)c3)c(C)nc2cc1OC
scale.unit: %
growth: 7
--
compound: O=C(C[n+]1cccc2ccccc21)c1ccc(O)c(O)c1
scale.unit: %
growth: 92.6
--
compound: O=S(=O)(NCCCNc1nccc(-c2c(-c3cccc(O)c3)nc3occn23)n1)c1ccc(Cl)cc1
scale.unit: %
growth: 92.5
--
compound: CCN(c1ccccc1)S(=O)(=O)c1cc([N+](=O)[O-])ccc1Cl
scale.unit: %
growth: 106
--
compound: CCN(CC)CCCC(C)Nc1cc(O)cc2cccnc12 (configuration not stated)
scale.unit: %
growth: 108
--
compound: COc1cc(NC(C)CCCNC(=O)CCC(=O)NCCCNCCCCCCCCNCCCNC(=O)CCC(=O)NCCCC(C)Nc2cc(OC)cc3cccnc23)c2ncccc2c1 (configuration not stated)
scale.unit: %
growth: 87.4
--
compound: N#Cc1cc(-c2nc3ccccc3s2)c(=O)n(NS(=O)(=O)c2ccccc2)c1N
scale.unit: %
growth: 106
--
compound: CCNC(=O)Oc1ccc(/C(=C(\C)c2ccccc2)c2ccc(OCCN3CCCCC3)cc2)cc1
scale.unit: %
growth: 49.3
--
compound: COc1ccc(/C=C/c2nc(Nc3ccc(Cl)cc3)c3ccccc3n2)cc1
scale.unit: %
growth: 18.2
--
compound: O=C(Cc1ccc(/C=C/C(=O)c2ncc[nH]2)cc1)Nc1ccc(Cl)cc1
scale.unit: %
growth: -35.5
--
compound: COC(=O)CNC(=O)[C@]12CCC(C)(C)C[C@H]1C1=CC[C@@H]3[C@@]4(C)Cc5c([nH]c6ccccc56)C(C)(C)[C@@H]4CC[C@@]3(C)[C@]1(C)CC2
scale.unit: %
growth: 87.7
--
compound: COc1cccc(-c2nc3occn3c2-c2ccnc(NCCNS(=O)(=O)c3cccc4ccccc34)n2)c1
scale.unit: %
growth: 101
--
compound: CC(=O)CCC(=O)OCc1cc(=O)c(O)co1
scale.unit: %
growth: 112
--
compound: CCOC(=O)CSc1nc2ccccc2c(=O)n1Cc1ccc(S(N)(=O)=O)cc1
scale.unit: %
growth: 101
--
compound: COc1ccc(CNCCN2C(=O)c3ccc4c5c(ccc(c35)C2=O)C(=O)N(CCNCc2ccc(OC)c(OC)c2OC)C4=O)c(OC)c1OC
scale.unit: %
growth: -21.2
--
compound: Cc1ccc(C(=O)/C(=C\c2ccc([N+](=O)[O-])cc2)S(=O)Cc2ccc(F)cc2)cc1 (configuration not stated)
scale.unit: %
growth: 15
--
compound: CC1(C)CC[C@]23CC[C@]4(C)[C@H](CC[C@@H]5[C@@]6(C)CCCNC(C)(C)[C@@H]6CC[C@]54C)[C@H]2[C@H]1OC3
scale.unit: %
growth: -60.6
--
compound: CCc1c2c(nc3ccc(OCc4ccc(B(O)O)cc4)cc13)-c1cc3c(c(=O)n1C2)COC(=O)[C@]3(O)CC
scale.unit: %
growth: 2.12
--
compound: CSc1nc2sc3cccc(Cl)c3n2c(=N)c1C#N
scale.unit: %
growth: 102

###

Tested on: ACHN renal
experiment.summary: NCI-60 one-dose screen, 48 h (100 = growth as untreated, 0 = no growth, -100 = all killed)
conditions.used: 10 µM unless noted
This is part of a sample that, as a whole, favours compounds with a hit. Of some 83,000 tested, about 20% had one in any assay.
Recorded growth by entry

molecule: CCOC(=O)c1cc(C(=O)c2cc(OC)cc(OC)c2)n2ccc3ccccc3c12
growth (%): 84.2
--
molecule: COc1ccc(/C=C/c2nc(Nc3ccc(S(=O)(=O)NC(C)=O)cc3)c3ccccc3n2)cc1
growth (%): 68.6
--
molecule: N#CC1C(C#N)C(C(=O)c2ccc(Br)cc2)N2c3ccccc3C=CC12 (centres undefined)
growth (%): 89.4
--
molecule: C/C(=N\Nc1cc(C)nc2ccc(Br)cc12)c1ccc([N+](=O)[O-])cc1
growth (%): 42.5
--
molecule: O=C(Cc1ccc(/C=C/C(=O)c2nccs2)cc1)Nc1ccccc1
growth (%): 96.5
--
molecule: CCOc1ccc(Nc2nc(-c3ccc4c(c3)NC(=O)CO4)cs2)cc1
growth (%): 52.3
--
molecule: Nc1c(S(=O)(=O)O)cc2c3c(cccc13)C(=O)OC2=O
growth (%): 95.2
--
molecule: O=C1c2ccc3c4c(ccc(c24)C(=O)N1CCCNCc1ccccc1Cl)C(=O)N(CCCNCc1ccccc1Cl)C3=O
growth (%): -39.3
--
molecule: C=C1C(=O)O[C@H]2[C@H]1CC/C(C(=O)NCCCCCNC(=O)/C1=C/CC[C@@]3(C)O[C@H]3[C@H]3OC(=O)C(=C)[C@@H]3CC1)=C\CC[C@@]1(C)O[C@@H]21
growth (%): 102
--
molecule: O=C(CSc1nc2sc3c(c2c(=O)n1-c1ccc(Cl)cc1)CCCC3)Nc1nc(-c2cccc(Br)c2)cs1
growth (%): 91.1
--
molecule: CCOC(=O)c1nc2c3ccccc3ccn2c1C(=O)OCC
growth (%): 99.5
--
molecule: COc1cc2c(cc1OC)C(=O)/C(=C/c1cc(C)c(O)c(C)c1)S2
growth (%): 45.3
--
molecule: O=C1/C=C/[C@@H](O)[C@@H]2C[C@@H](O)C[C@H]2/C=C/CCC[C@H](CCc2ccc3ncccc3c2)O1
growth (%): 5.12
--
molecule: O=S(=O)(NCCNc1nccc(-c2c(-c3cccc(O)c3)nc3occn23)n1)c1ccc(Cl)cc1
growth (%): 98.5
--
molecule: N#CC(C(=O)/C(=N/NC(=O)c1ccccc1O)C(C#N)c1ccccc1)c1ccccc1 (centres undefined)
growth (%): 31
--
molecule: C[C@H](c1nc2ccc(N)cc2[nH]1)[C@H]1CC[C@H]2[C@@H]3CCC4=CC(=O)CC[C@]4(C)[C@H]3CC[C@]12C
growth (%): 96.9
--
molecule: COc1cc2nc(-c3ccc(C(F)(F)F)cc3)cc(OCCCN3CCCC3)c2cc1OC
growth (%): 39.1
--
molecule: Cn1ccnc1C(=O)/C=C/c1ccc(CC(=O)Nc2ccc(F)cc2)cc1
growth (%): 69.3
--
molecule: COc1cc(OC)cc(C(=O)C[n+]2cccc3cc[nH]c32)c1
growth (%): 101
